System: ESBL E. cloacae
Type: cell-based, Enterobacter cloacae
Residues, ends and D or L forms follow the SMILES beside them.
READOUT NAME: log10 of MIC (log10 of the value in µM)
Plainly stated, the numbers are log10 of MIC given in µM.

The value of log10 of MIC measured for the compound CC[C@H](C)[C@H](NC(=O)[C@H](CCCNC(=N)N)NC(=O)[C@H](C)NC(=O)[C@H](CC(C)C)NC(=O)[C@@H](N)CCCNC(=N)N)C(=O)N[C@H](C(=O)N[C@H](C(=O)N[C@H](C(=O)N[C@@H](CCCNC(=N)N)C(=O)N[C@H](C(=O)N[C@@H](C)C(=O)N[C@@H](CCCNC(=N)N)C(N)=O)C(C)C)[C@@H](C)CC)C(C)C)C(C)C [Bac2A, RLARIVVIRVAR-NH2, reference compound] (H-RLARIVVIRVAR-NH2; N-terminus assumed) turned out to be 1.38

====

Below, each entry is listed with its recorded MIC E. coli.
Tested on: Escherichia coli UB1005
Assay type: cell-based
Details: indolicidin substitution variants (Table 4)
Residues, ends and D or L forms follow the SMILES beside them.
Write the number in µg/mL without appending the unit.

{"COMPOUND": "CC[C@H](C)[C@H](N)C(=O)N[C@@H](CC(C)C)C(=O)N1CCC[C@H]1C(=O)N[C@@H](Cc1c[nH]c2ccccc12)C(=O)N[C@@H](CCCCN)C(=O)N[C@@H](Cc1c[nH]c2ccccc12)C(=O)N[C@@H](CCCNC(=N)N)C(=O)N[C@@H](Cc1c[nH]c2ccccc12)C(=O)N[C@@H](Cc1c[nH]c2ccccc12)C(=O)N[C@@H](CCCCN)C(=O)N[C@@H](Cc1c[nH]c2ccccc12)C(=O)N[C@@H](CCCNC(=N)N)C(=O)N[C@@H](CCCNC(=N)N)C(N)=O [HH971, ILPWKWRWWKWRR] (H-ILPWKWRWWKWRR-NH2; N-terminus assumed)", "UNITS TEXT": "µg/mL", "MIC E. coli": 8}

Then there is this compound:
The value of MIC E. coli measured for the compound CC(C)C[C@H](NC(=O)[C@@H](N)Cc1ccccc1)C(=O)N1CCC[C@H]1C(=O)N[C@@H](CCCCN)C(=O)N[C@@H](CCCCN)C(=O)N[C@@H](Cc1ccccc1)C(=O)N[C@@H](CCCNC(=N)N)C(=O)N[C@@H](Cc1c[nH]c2ccccc12)C(=O)N[C@@H](Cc1c[nH]c2ccccc12)C(=O)N[C@@H](CCCCN)C(=O)N[C@@H](Cc1ccc(O)cc1)C(=O)N[C@@H](CCCNC(=N)N)C(=O)N[C@@H](CCCCN)C(N)=O [HH972, FLPKKFRWWKYRK] (H-FLPKKFRWWKYRK-NH2; N-terminus assumed) turned out to be 16

====

System: Staphylococcus aureus ATCC25923
Format: cell-based
Conditions: ATCC25923
Experimental: Minimal inhibitory concentration (MIC) determination. The MIC of the peptides were measured using a modified broth microdilution method in Mueller Hinton (MH) medium (Wu M, Hancock R E W. 1999. Interaction of the cyclic antimicrobial cationic peptide bactenecin with the outer and cytoplasmic membrane. J Biol Chem 274, 29-35). Briefly, the peptides were dissolved and stored in glass vials. The assay was performed in sterile 96-well polypropylene microtitre plates were used. […]
Residues, ends and D or L forms follow the SMILES beside them.
READOUT NAME: MIC S. aureus (µg/mL)
Write the number in µg/mL without appending the unit.

{"COMPOUND": "CC[C@H](C)[C@H](N)C(=O)N[C@@H](CC(C)C)C(=O)N1CCC[C@H]1C(=O)N[C@@H](Cc1c[nH]c2ccccc12)C(=O)N[C@@H](CCCCN)C(=O)N[C@@H](Cc1c[nH]c2ccccc12)C(=O)N1CCC[C@H]1C(=O)N[C@@H](Cc1c[nH]c2ccccc12)C(=O)N[C@@H](Cc1c[nH]c2ccccc12)C(=O)N[C@@H](CCCCN)C(=O)N[C@@H](Cc1c[nH]c2ccccc12)C(=O)N[C@@H](CCCNC(=N)N)C(=O)N[C@@H](CCCNC(=N)N)C(N)=O [HH117, ILPWKWPWWKWRR] (H-ILPWKWPWWKWRR-NH2; N-terminus assumed)", "UNITS TEXT": "µg/mL", "MIC S. aureus": 8}

Then there is this compound:
Given the compound CC[C@H](C)[C@H](NC(=O)[C@H](CCCNC(=N)N)NC(=O)[C@H](Cc1ccccc1)NC(=O)[C@H](CCC(N)=O)NC(=O)[C@@H](N)CCCCN)C(=O)N[C@@H](CCCNC(=N)N)C(=O)N[C@H](C(=O)N[C@@H](CCCNC(=N)N)C(=O)N[C@H](C(=O)N[C@H](C(=O)N[C@@H](CCCNC(=N)N)C(=O)N[C@@H](CCCCN)C(N)=O)[C@@H](C)CC)C(C)C)C(C)C [HH12, KQFRIRVRVIRK] (H-KQFRIRVRVIRK-NH2; N-terminus assumed) and test system Staphylococcus aureus ATCC25923, the measured MIC S. aureus is 12
